The entries below are paired with their reported protein stability index.
B1: SLC2A12 (parent)
chain: CLLGLGSLVLILSLSYTVLIVGRI

- Variants of: B1
- TEST_SUMMARY: protein stability index of a GFP-peptide fusion (GPS, HEK-293T) (PSI 1-6); higher = more stable;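 further: lentivirally expressed fusions sorted by FACS into six bins by GFP to DsRed ratio, PSI derived from sequencing read proportions per bin multiplied by bin number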
- TEST_SETTINGS: c terminus: a fixed tail appended

MUTATION_NAME	protein stability index
L10T	3.09
L10S	2.96
V18T	2.93
L10W	3.03
L8I	3
R23E	3.06
L10C	3.02
V18S	3.07
